Value source: patent US6534524B1

Test: Human liver microsome (HLM) assay
Assay type: in vitro ADME
Details: human liver microsomes, 5 μM test compound
Sorting guide: entries reporting % remain (HLM, 2 h) beneath 30% go in the MET pile, the rest go in the NOT MET pile.

These recorded examples may help you get a feel for the data.
> print(dat)
                                   compound  classlabel
1  O=C(NCc1ccco1)c1ccccc1Sc1ccc2c(/C=C/c3ccccn3)n[nH]c2c1 [Example 35(bb)]         MET
2  O=C(Nc1cccc(Oc2ccc3c(/C=C/c4cccs4)n[nH]c3c2)c1)c1ccccc1 [Example 30(a)]     NOT MET

Lab log: compare recorded % remain (HLM, 2 h) with 30%; is it strictly lower for Cn1cccc1C(=O)NNC(=O)c1ccccc1Sc1ccc2c(/C=C/c3ccccn3)n[nH]c2c1 [Example 35(e)] ? NOT MET

Lab log: compare recorded % remain (HLM, 2 h) with 30%; is it strictly lower for O=C(Nc1cccc(C(=O)c2ccc3c(-c4nc5ccccc5[nH]4)n[nH]c3c2)c1)c1ccccc1 [Example 42(b)] ? NOT MET

Lab log: compare recorded % remain (HLM, 2 h) with 30%; is it strictly lower for C/C=C/C(=O)Nc1cccc(C(=O)c2ccc3c(/C=C/c4ccccn4)n[nH]c3c2)c1 [Example 41(c)] ? NOT MET

Lab log: compare recorded % remain (HLM, 2 h) with 30%; is it strictly lower for CCCONC(=O)c1ccccc1Sc1ccc2c(/C=C/c3ccccn3)n[nH]c2c1 [Example 35(t)] ? MET

Lab log: compare recorded % remain (HLM, 2 h) with 30%; is it strictly lower for CC(=O)Nc1cccc(Sc2ccc3c(/C=C/c4ccccc4)n[nH]c3c2)c1 [Example 20(a)] ? NOT MET

Lab log: compare recorded % remain (HLM, 2 h) with 30%; is it strictly lower for O=C(Nc1cccc(Oc2ccc3c(/C=C/c4ccco4)n[nH]c3c2)c1)c1ccccc1 [Example 30(c)] ? NOT MET

Lab log: compare recorded % remain (HLM, 2 h) with 30%; is it strictly lower for CC(=O)c1ccc(C(=O)Nc2cccc(C(=O)c3ccc4c(/C=C/c5ccccn5)n[nH]c4c3)c2)s1 [Example 41(e)] ? MET

Lab log: compare recorded % remain (HLM, 2 h) with 30%; is it strictly lower for O=C(NC1CC1)c1ccccc1Sc1ccc2c(/C=C/c3ccccn3)n[nH]c2c1 [Example 33(e)] ? NOT MET
